# measurement-notes: P. aeruginosa biofilm formation inhibitors, primary screen, PAO1 strain, BacTiter-Glo luminescence, LB-PBS (AID 1144)
# study-conditions: 12 h, higher = more signal
reported-metric: z-score

1. COC(=O)[C@H](C)NC(=O)CCC1CC(OC(=O)NCc2cccc3ccccc23)CC2(CCCC(COC(=O)NCC3CCCCC3)O2)O1 (stereo partly drawn); -0.803
2. CC(C)(C)N1C(=O)[C@H]2[C@H]3[C@H](O)[C@H](O)CC(=NO[C@@H]4O[C@H](CO)[C@@H](O)[C@H](O)[C@H]4O)[C@@H]3CC[C@H]2C1=O; 0.0108
3. CC(C)[C@@H](OCc1ccccc1)[C@H](C)C=NO[C@H](C)c1cn([C@H](CO)Cc2ccccc2)nn1; 0.403
4. CC(=O)OC[C@H]1O[C@H](CC=NOC[C@@H](C)[C@H](OCc2ccccc2)C(C)C)C=C[C@@H]1OC(C)=O; -0.369
5. CN(C)CCCNC(=O)[C@@H]1c2ccccc2C(=O)N(Cc2ccccc2)[C@H]1c1ccc(CO)cc1; 0.596
6. C=C(/C(=C/C[C@H](OC(C)=O)c1ccc(OCCO)cc1)c1cnc2ccccc2c1)C(C)C; -1.37
7. COc1ccc(-c2nc3c(c4c2C[C@H](C)OC4)CN(CCC(C)C)CC3)cc1; -1.22
8. COC(=O)[C@H]1COC(c2ccc(OCCCO)cc2)=N1; -0.767

* * *

# measurement-notes: E. coli DRC41 culture turbidity changes, primary screen, E. coli filamentation inducer project, strain DRC41, OD650, 48 h (AID 1152);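 note: E. coli MC1000 strain DRC41 lacking acrAB efflux pump and sulA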
# study-conditions: E. coli DRC41 (acrAB sulA), higher = more signal, called active from +8 up or from −8 down
Think of -0.5 as a floor: if z-score stands on it or above, it is y; beneath it, n.

1) CO[C@H]([C@@H](C)[C@H](OC)c1ccccc1)[C@H](C)[C@@H](OC)[C@H](C)C(C)=O; n
2) O=C1c2ccccc2[C@@]2(Cc3ccccc3N(C3CC3)C2=O)[C@H](c2ccc(CO)cc2)N1Cc1ccccc1C(F)(F)F; y
3) COCC(=C=CC[C@@H](O)c1ccccc1OCCO)CCO; y
4) C=C(COC)/C(=C/C[C@H](OC(=O)c1ccncc1)c1ccc(CO)o1)c1cc(C(=O)OC)ccc1OC; y
5) CCOc1ccc(N2C(=O)/C(=C/C=C/c3ccccc3OC)S(=O)(=O)C2c2cccc([N+](=O)[O-])c2)cc1 (configuration not stated); y
6) CC(CCN1CCc2nc(-c3ccccc3)c(-c3ccccc3)cc2C1)=NOC[C@@H](C)[C@H](OCc1ccccc1)C(C)C; y
7) CC(CCN1CCCCc2nc(C)c(C)cc21)=NOC(C)CN1CCCCc2nc(C)c(C)cc21 (configuration not stated); n
8) O=C1O[C@@H](c2ccccc2)[C@@H](c2ccccc2)N2[C@@H](c3ccc(O)cc3)[C@]3(C(=O)Nc4ccccc43)[C@@H](C(=O)O)[C@H]12; y
9) COCCCNC(=O)[C@]1(Cc2ccccc2)N=C(c2ccc(OCCCO)cc2)O[C@@H]1c1ccccc1; n
10) COC(=O)[C@H](C)NC(=O)CCC1CC(OC(=O)NCc2cccc3ccccc23)CC2(CCCC(COC(=O)NCCc3ccc(Cl)cc3)O2)O1 (some centres not stated); y
11) CC(CCC(=O)OC[C@H]1O[C@H](C#Cc2ccccc2)C=C[C@@H]1Oc1ccc(C)cc1)=NOC[C@@H](O)COCc1ccco1; y
12) COC(=O)[C@@]1(Cc2ccccc2)[C@H]2c3cc(C(=O)N4CCCC4)n(Cc4ccccn4)c3C[C@H]2CN1C(=O)c1ccccc1; n
13) Cc1ccc(F)cc1S(=O)(=O)N[C@@H]1CCN(Cc2ccc(CC(C)C)cc2)C1; n
14) CCOC(=O)C1=CC[C@H]2C(=O)N(CC)C(=O)[C@@H]12; y
15) CCCCc1nc2c(c3c1C[C@H](C)OC3)CN(CCC(C)C)CC2; y
16) C[C@@H]1C=CCC(=O)OC[C@H](C)C(=O)N2CCC[C@H]2C(=O)OC1; y

Where do the numbers come from? From PubChem BioAssay.
